Recorded % inhibition of 14C-serotonin release (SRA), HIT-Positive Patient #4 serum, scFv 75 µg/mL, one value per entry.
# Target Desc: T1, PF4/heparin complex (human PF4 complexed with heparin) (human, UniProt P02776 32-101)
# T1 sequence: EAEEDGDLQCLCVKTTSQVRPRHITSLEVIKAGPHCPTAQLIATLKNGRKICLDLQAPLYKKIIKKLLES
# Experiment Description: cell-based or functional assay
Numbers only; they are read as %.

Mutant D scFv, scFv(Y156H) (scFv, VL-linker-VH; histidine-tagged, from E. coli BL21; also called Mut D; not shown: histidine tag from the pADL-22c vector) scFv: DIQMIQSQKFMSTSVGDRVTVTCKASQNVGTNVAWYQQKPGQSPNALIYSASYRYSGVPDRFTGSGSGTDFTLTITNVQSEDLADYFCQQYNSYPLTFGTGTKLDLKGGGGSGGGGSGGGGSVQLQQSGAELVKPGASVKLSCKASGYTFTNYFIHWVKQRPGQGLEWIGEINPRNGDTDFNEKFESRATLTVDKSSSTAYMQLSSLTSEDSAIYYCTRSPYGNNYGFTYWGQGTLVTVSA    38.9

# evaluate next
**Q:** Given Mutant C scFv, scFv(S50N, Y53H) (scFv, VL-linker-VH; histidine-tagged, from E. coli BL21; also called Mut C; not shown: histidine tag from the pADL-22c vector) scFv: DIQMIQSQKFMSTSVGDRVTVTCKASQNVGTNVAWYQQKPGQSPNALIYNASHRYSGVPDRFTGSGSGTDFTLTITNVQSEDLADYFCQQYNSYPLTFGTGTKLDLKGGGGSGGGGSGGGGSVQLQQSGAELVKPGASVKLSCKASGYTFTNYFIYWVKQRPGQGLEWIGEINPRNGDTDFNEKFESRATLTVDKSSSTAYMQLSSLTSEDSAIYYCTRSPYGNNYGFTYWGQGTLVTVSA , respond with its % inhibition of 14C-serotonin release (SRA), HIT-Positive Patient #4 serum, scFv 75 µg/mL.
**A:** 5.6

Where do the numbers come from? From patent US20250011413A1.
